# Read-out: cysteine-aspartic acid protease (CASP8), CASP8 (gene 841)
# methodDescription: LTEA_HepaRG_CASP8: Life Technologies and Expression Analysis (LTEA) Assay for cysteine-aspartic acid protease (CASP8) using HepaRG (AID 2283480)
# details: mRNA level, 48 h; actives raise or lower the signal
Calls of active or inactive are those of the source. How the source made its calls: active means hit-call score of the fitted dose curve at least 0.9, where 1 is the maximum; inactive means score below 0.9.
Result category, one only: Yes (active), No (inactive)

compound	categoryLabel
CC1(C)CCC(=Cc2ccc(Cl)cc2)C1(O)Cn1cncn1 (centres undefined)	No
O=C(Nc1ccccc1-c1ccc(Cl)cc1)c1cccnc1Cl	No
Nc1c(Cl)c(Cl)nc(C(=O)O)c1Cl	No
COP(=S)(OC)SCn1nnc2ccccc2c1=O	No
CC(C)N1C(=O)N(c2ccccc2)CSC1=NC(C)(C)C	No

Incoming: Each compound tested received a call. Report the one for "COc1ccc(-c2ccccc2)cc1NNC(=O)OC(C)C" .
Outgoing: No

Incoming: Each compound tested received a call. Report the one for "CCSC(=O)N1CCCCCC1" .
Outgoing: No

Incoming: Each compound tested received a call. Report the one for "Nc1cnn(-c2ccccc2)c(=O)c1Cl" .
Outgoing: No

Incoming: Each compound tested received a call. Report the one for CCN(CC)C(=O)C(C)Oc1cccc2ccccc12 (centres undefined) .
Outgoing: No
